Reference source for all entries: ChEMBL document CHEMBL4689842

System: Fibroblast
Test: Multiplex assay against human fibroblast
Assay type: toxicity, cell-based
Settings: 12 h, 10 µM, compound concentration 10 uM, replicate 2
For each of the compounds below, state its Population Membrane Permeable-Phenotype (%).
Give bare numbers, in %.

>  <compound>
CCN(CC)CCCCNc1ncc2cc(-c3cc(OC)cc(OC)c3)c(NC(=O)NC(C)(C)C)nc2n1

>  <measured_number>
16

$$$$
>  <compound>
C=CC(=O)Nc1cc2c(Nc3ccc(F)c(Cl)c3)ncnc2cc1OCCCN1CCOCC1.Cl.Cl [CANERTINIB DIHYDROCHLORIDE]

>  <measured_number>
10

$$$$
>  <compound>
COc1ncc(-c2ccc3nccc(-c4ccnnc4)c3c2)cc1NS(=O)(=O)c1ccc(F)cc1F

>  <measured_number>
11

$$$$
>  <compound>
Cc1c(-c2ccc(O)cc2)n(Cc2ccc(OCCN3CCCCCC3)cc2)c2ccc(O)cc12

>  <measured_number>
26

$$$$
>  <compound>
CC(C)NCC(O)COc1ccc(CCOCC2CC2)cc1.Cl (configuration not stated) [BETAXOLOL HYDROCHLORIDE]

>  <measured_number>
5

$$$$
>  <compound>
CN1CCC[C@@H]1CCO[C@](C)(c1ccccc1)c1ccc(Cl)cc1.O=C(O)/C=C/C(=O)O [CLEMASTINE FUMARATE]

>  <measured_number>
6

$$$$

Okay, now this compound:
### Prompt Given the compound `Cc1nc(-c2ccc(-c3ccc(C(=O)N4CCc5cc6c(cc54)C4(CCN(C)CC4)CO6)cc3)c(C)c2)no1` , what is its reported Population Membrane Permeable-Phenotype (%)?
### Response 54

----------
Tested on: U2OS
Experiment: Multiplex assay against U2OS
Format: toxicity, cell-based
Settings: human, 48 h, 1 µM, compound concentration 1 uM, replicate 2
assay_metric: Total Cell Count

Check out these entries, answers already filled in.
>  <compound>
CC(C)NCC(O)COc1ccc(CCOCC2CC2)cc1.Cl (centres undefined) [BETAXOLOL HYDROCHLORIDE]

>  <Total Cell Count>
87

$$$$
>  <compound>
C[C@@H](NCCCc1cccc(C(F)(F)F)c1)c1cccc2ccccc12.Cl [CINACALCET HYDROCHLORIDE]

>  <Total Cell Count>
75

$$$$
>  <compound>
CN1CCC[C@@H]1CCO[C@](C)(c1ccccc1)c1ccc(Cl)cc1.O=C(O)/C=C/C(=O)O [CLEMASTINE FUMARATE]

>  <Total Cell Count>
164

$$$$
>  <compound>
Cc1[nH]c(/C=C2\C(=O)Nc3ccc(S(=O)(=O)N(C)c4cccc(Cl)c4)cc32)c(C)c1C(=O)N1CCN(C)CC1

>  <Total Cell Count>
62

$$$$
>  <compound>
Cc1nc(-c2ccc(-c3ccc(C(=O)N4CCc5cc6c(cc54)C4(CCN(C)CC4)CO6)cc3)c(C)c2)no1

>  <Total Cell Count>
88

$$$$

Could I get Total Cell Count for every one of these entries?
1. COc1cccc([C@@H](C)NCCCc2ccccc2Cl)c1.Cl [TECALCET HYDROCHLORIDE]
2. CN(C)C(=O)/C(C#N)=C/c1ccc(-c2nc3cnc4[nH]ccc4c3n2C2CCCCC2)o1
3. CN1CCCC(n2nc(Cc3ccc(Cl)cc3)c3ccccc3c2=O)CC1.Cl (centres undefined) [AZELASTINE HYDROCHLORIDE]
4. OC1(c2ccc(Cl)cc2)CCN(Cc2c[nH]c3ccccc23)CC1

### Response
1. 153
2. 104
3. 77
4. 85
